Test system: S. aureus N315 mutant Mt50DscA.5
test.method.notes: Susceptibility (MIC) of Disciformycin A-resistant mutant
Type: cell-based
condition.label: Staphylococcus aureus
Recorded MIC values for a group of compounds are listed next.
endpoint: MIC (µg/mL)

1. C/C=C(/C)[C@H]1C/C=C(\C)[C@@H](O[C@H]2O[C@H](CO)[C@@H](O)[C@@H]2O)[C@H](OC(=O)CC(C)C)C(=O)C/C=C(/C)C(=O)O1 [Compound 1, disciformycin A] = 64
2. C/C=C(/C)[C@H]1C/C=C(\C)[C@@H](O[C@H]2O[C@H](CO)[C@@H](O)[C@@H]2O)[C@H](OC(=O)CC(C)C)C(=O)/C=C/[C@H](C)C(=O)O1 [Compound 2, disciformycin B] = 16
